target: hSTING (Homo sapiens, UniProt Q86WV6, H232R); assay: Summary of interaction of CXL with hSTING in vitro and in cellulo; details: read-out: EC50, first mode of interaction with hSTING
pEC50: −log10 of the molar value.
Recorded endpoint: pEC50

Q. Fill in the blank: the reported pEC50 of Cc1c(Cl)cccc1Nc1ncccc1C(=O)OCC(O)CO (stereo not shown) [CXL, clonixeril] is ____.
A. < 9.00

###

tested on: hSTING WT pathway (THP1 Dual KI-hSTING-R232 cells, IRF3 luciferase reporter); assay: THP-1 IRF3 luciferase reporter assay, clonixeril as agonist; settings: read-out: EC50 (agonist activity); CXL alone, THP-1 cells, Figure 2A
Recorded endpoint: pEC50
Bear in mind: pEC50 is minus log10 of a mol/L concentration; give just that figure.

Q. Fill in the blank: the reported pEC50 of Cc1c(Cl)cccc1Nc1ncccc1C(=O)OCC(O)CO (stereo not shown) is ____.
A. 4.70

###

target: SUMO-hSTING CTD (Homo sapiens, UniProt Q86WV6, H232R); experiment: Isothermal titration calorimetry; details: read-out: KD (ITC)
Sequence (Q86WV6 155-343 H232R): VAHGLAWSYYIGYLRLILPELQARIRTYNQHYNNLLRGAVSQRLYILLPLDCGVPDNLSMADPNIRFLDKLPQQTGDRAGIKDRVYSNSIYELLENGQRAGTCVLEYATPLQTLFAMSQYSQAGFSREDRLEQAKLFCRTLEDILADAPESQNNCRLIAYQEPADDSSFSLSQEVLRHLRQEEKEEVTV
Recorded endpoint: Kd (µM)
Write the number in µM without appending the unit.

Q. Fill in the blank: the reported Kd of Nc1nc2c(ncn2C2OC3COP(=O)(O)OC4C(COP(=O)(O)OC3C2O)OC(n2cnc3c(=O)[nH]c(N)nc32)C4O)c(=O)[nH]1 (stereo not shown) [c-diGMP, cyclic di-GMP, reference compound] is ____.
A. 2.17

###

target: His-hSTING CTD (Homo sapiens, UniProt Q86WV6, H232R); construct: purchased Invivogen (USA) or Cayman Chemicals (USA); assay: Surface plasmon resonance; type: binding; details: read-out: KD (SPR)
Sequence (Q86WV6 153-340 H232R): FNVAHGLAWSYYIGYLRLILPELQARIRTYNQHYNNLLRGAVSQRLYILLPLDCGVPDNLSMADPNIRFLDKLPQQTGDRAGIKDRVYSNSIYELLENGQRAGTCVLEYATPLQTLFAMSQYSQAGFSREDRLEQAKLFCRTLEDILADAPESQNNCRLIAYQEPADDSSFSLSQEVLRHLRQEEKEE
Recorded endpoint: Kd (µM)
Write the number in µM without appending the unit.

Q. Fill in the blank: the reported Kd of Nc1nc2c(ncn2C2OC3COP(=O)(O)OC4C(COP(=O)(O)OC3C2O)OC(n2cnc3c(=O)[nH]c(N)nc32)C4O)c(=O)[nH]1 (stereo not shown) [c-diGMP, cyclic di-GMP, reference compound] is ____.
A. 4.78
